- measured target: purified human farnesyl protein transferase (Homo sapiens, UniProt P49354+P49356)
- assay text: FPT activity: transfer of [3H] farnesyl from [3H] farnesyl pyrophosphate to biotinylated H-ras peptide (SPA)
- Assay type: biochemical
- condition info: 0.03 nM enzyme, 37° C., 60 minutes
measured endpoint: IC50 (pM)

- compound: "Cn1cncc1C(NC(=O)OC1(C)CC1)C1=Cc2cccnc2C(=C2CCN(C(=O)OC3(C)CC3)CC2)c2ccc(Cl)cc21 (stereo not shown)"
  measured target: "purified human farnesyl protein transferase (Homo sapiens, UniProt P49354+P49356)"
  experimental value: 900
